Molecular target: Bromodomain-containing protein 1 (Homo sapiens) (UniProt O95696)
Sequence (whole entry): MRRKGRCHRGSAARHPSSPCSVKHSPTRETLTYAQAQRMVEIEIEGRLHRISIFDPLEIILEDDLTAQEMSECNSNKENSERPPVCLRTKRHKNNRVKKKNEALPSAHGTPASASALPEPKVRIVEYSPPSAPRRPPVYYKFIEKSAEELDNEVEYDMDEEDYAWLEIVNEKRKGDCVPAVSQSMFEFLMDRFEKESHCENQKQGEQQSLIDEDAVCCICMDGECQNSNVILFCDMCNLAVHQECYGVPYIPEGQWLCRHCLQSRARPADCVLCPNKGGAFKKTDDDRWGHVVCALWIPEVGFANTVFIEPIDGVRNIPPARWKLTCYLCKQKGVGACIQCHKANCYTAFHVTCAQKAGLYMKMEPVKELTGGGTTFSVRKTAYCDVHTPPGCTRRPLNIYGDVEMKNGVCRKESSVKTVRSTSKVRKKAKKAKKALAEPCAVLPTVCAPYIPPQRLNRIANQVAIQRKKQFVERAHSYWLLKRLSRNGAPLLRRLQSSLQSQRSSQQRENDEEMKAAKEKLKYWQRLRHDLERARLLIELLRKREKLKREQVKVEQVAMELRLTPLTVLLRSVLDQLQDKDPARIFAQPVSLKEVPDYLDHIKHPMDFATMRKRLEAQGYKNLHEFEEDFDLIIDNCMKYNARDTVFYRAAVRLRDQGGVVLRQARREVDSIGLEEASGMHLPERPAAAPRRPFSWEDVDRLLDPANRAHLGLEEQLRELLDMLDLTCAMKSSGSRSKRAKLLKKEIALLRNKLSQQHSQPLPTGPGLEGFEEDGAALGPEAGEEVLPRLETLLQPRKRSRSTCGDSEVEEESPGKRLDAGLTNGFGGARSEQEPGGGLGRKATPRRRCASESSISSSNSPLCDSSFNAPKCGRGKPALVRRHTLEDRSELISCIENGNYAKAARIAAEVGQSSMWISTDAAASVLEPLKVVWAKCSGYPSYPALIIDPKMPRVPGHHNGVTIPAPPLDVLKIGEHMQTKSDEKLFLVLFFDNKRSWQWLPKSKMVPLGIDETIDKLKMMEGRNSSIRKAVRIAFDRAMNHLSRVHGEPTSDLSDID
Assay: Binding affinity to human His6-tagged BRD1 (E556 to A688 residues) expressed in Escherichia coli BL21(DE3) cells at 200 uM incubated for 30 mins by SYPRO orange staining based fluorescence thermal shift assay
Entries and their measured ΔTm follow.
The figure you give is taken to be in °C; do not add the unit.

Solved cases (5 shown):
>>> result_number("CCN1C(=O)c2cccc3c(NS(=O)(=O)c4cc(Cl)ccc4OC)ccc1c23")
0.1
>>> result_number("CCN1C(=O)c2cccc3c(NS(=O)(=O)c4ccc(F)cc4)ccc1c23")
2.9
>>> result_number("CCN1C(=O)c2cccc3c(NS(=O)(=O)c4cc(Br)ccc4OC)ccc1c23")
0.1
>>> result_number("CCN1C(=O)c2cccc3c(NS(=O)(=O)c4ccc(F)cc4F)ccc1c23")
1.6
>>> result_number("CCN1C(=O)c2cccc3c(S(=O)(=O)Nc4ccccc4C(=O)O)ccc1c23")
2

Incoming: What is its ΔTm for Bromodomain-containing protein 1 (Homo sapiens) (UniProt O95696)? Entry: CCN1C(=O)c2cccc3c(NS(=O)(=O)C4CCCCC4)ccc1c23
Outgoing: -0.3

Incoming: Tell me reported ΔTm for CCN1C(=O)c2cccc3c(S(=O)(=O)Nc4ccc(F)cc4)ccc1c23 , tested with Bromodomain-containing protein 1 (Homo sapiens) (UniProt O95696).
Outgoing: 2.9

Incoming: # value lookup — system Bromodomain-containing protein 1 (Homo sapiens) (UniProt O95696), readout ΔTm, item CCN1C(=O)c2cccc3c(S(=O)(=O)NCC4CCN(C(C)=O)CC4)ccc1c23
Outgoing: 1.6

Incoming: // map CCCCS(=O)(=O)Nc1ccc2c3c(cccc13)C(=O)N2CC to recorded ΔTm (system: Bromodomain-containing protein 1 (Homo sapiens) (UniProt O95696))
Outgoing: 0.1

Incoming: Value wanted: ΔTm (Bromodomain-containing protein 1 (Homo sapiens) (UniProt O95696)) of entry CCN1C(=O)c2cccc3c(S(=O)(=O)NC4CCCCC4)ccc1c23
Outgoing: 2.4

meta.source: ChEMBL document CHEMBL3779865
